Biological target: integrin α5β1 (Homo sapiens, UniProt P05556+P08648)
Sequence (P08648 42-995 limits assumed): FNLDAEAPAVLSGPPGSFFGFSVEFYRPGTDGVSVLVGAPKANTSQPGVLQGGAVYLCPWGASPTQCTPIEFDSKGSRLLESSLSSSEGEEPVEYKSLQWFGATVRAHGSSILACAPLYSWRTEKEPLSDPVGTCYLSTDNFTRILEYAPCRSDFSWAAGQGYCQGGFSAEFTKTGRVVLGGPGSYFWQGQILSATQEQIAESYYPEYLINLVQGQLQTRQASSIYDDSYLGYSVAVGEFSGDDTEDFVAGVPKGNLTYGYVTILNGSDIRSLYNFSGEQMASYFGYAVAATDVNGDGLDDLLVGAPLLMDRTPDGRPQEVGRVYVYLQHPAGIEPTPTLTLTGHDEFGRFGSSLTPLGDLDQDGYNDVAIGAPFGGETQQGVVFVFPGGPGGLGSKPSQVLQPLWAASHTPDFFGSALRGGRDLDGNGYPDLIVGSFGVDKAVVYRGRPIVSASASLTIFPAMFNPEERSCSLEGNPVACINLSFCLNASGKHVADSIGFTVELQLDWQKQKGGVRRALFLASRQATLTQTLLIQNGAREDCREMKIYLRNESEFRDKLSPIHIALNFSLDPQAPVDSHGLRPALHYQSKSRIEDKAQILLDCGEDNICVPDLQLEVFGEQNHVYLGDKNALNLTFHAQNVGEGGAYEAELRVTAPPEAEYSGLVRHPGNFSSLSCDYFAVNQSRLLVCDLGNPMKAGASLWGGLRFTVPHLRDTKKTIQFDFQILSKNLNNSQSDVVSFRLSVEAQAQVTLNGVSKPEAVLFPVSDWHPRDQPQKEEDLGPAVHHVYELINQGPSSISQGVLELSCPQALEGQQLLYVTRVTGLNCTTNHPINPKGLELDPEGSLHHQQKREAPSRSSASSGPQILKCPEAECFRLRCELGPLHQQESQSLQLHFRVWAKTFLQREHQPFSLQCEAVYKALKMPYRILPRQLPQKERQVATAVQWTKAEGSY
Sequence (P05556 21-728 limits assumed): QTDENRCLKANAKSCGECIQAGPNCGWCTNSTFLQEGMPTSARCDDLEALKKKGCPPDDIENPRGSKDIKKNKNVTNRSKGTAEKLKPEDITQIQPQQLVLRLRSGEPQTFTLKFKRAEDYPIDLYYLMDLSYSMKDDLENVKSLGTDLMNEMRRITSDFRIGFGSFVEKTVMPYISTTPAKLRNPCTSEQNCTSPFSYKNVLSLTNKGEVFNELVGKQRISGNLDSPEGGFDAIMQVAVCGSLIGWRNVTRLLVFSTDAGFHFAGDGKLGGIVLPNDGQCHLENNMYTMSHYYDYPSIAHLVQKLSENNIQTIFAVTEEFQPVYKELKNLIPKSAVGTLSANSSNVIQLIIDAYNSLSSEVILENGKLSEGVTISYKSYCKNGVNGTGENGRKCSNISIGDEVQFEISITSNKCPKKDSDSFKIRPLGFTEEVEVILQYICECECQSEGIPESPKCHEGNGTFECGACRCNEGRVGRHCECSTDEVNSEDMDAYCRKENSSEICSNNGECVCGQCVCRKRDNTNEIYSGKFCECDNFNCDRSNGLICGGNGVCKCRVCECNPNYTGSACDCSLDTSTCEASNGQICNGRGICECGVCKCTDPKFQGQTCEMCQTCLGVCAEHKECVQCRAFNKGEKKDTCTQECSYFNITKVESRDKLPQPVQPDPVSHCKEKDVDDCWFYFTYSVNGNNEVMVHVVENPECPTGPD
Assay: Target affinity test by surface plasmon resonance (SPR), integrin α5β1
Format: binding
Details: SPR
Non-standard residues stand in square brackets, D forms with d. Residues, ends and D or L forms follow the SMILES beside them. ξ: configuration not given here. *: point of attachment. DOTA = O=C(O)CN1CCN(CC(=O)O)CCN(CC(=O)*)CCN(CC(=O)O)CC1; NOTA = O=C(O)CN1CCN(CC(=O)O)CCN(CC(=O)*)CC1; PEG4 = NCCOCCOCCOCCOCCC(=O)O; ξIle = CC[C@H](C)C(N)C(=O)O; Pip = O=C(O)[C@@H]1CCCCN1; ξN = NC(=O)CC(N)C(=O)O; AEEA = NCCOCCOCC(=O)O; Aib = CC(C)(N)C(=O)O; AEA = NCCOCC(=O)O
endpoint_name: affinity constant (KD) to integrin α5β1, in words

Worked cases, answers included:
>>> result_value("CC[C@H](C)[C@H](NC(=O)C(C)(C)NC(=O)[C@H](CC(=O)O)NC(=O)[C@H](CC(N)=O)NC(=O)CN1CCN(CC(=O)O)CCN(CC(=O)O)CCN(CC(=O)O)CC1)C(=O)N[C@@H](CC(N)=O)C(=O)O [TM11] ({DOTA}-ND[Aib]IN-OH)")
"better than nM level"
>>> result_value("CC[C@H](C)[C@H](NC(=O)[C@@H]1CCCCN1C(=O)[C@H](CC(=O)O)NC(=O)[C@H](CC(N)=O)NC(=O)CN1CCN(CC(=O)O)CCN(CC(=O)O)CCN(CC(=O)O)CC1)C(=O)NC(CC(N)=O)C(=O)O (stereo partly drawn) [TM9] ({DOTA}-ND[Pip]I[ξN]-OH)")
"better than nM level"
>>> result_value("CC[C@H](C)C(NC(=O)[C@@H](NC(=O)[C@H](CC(=O)O)NC(=O)[C@H](CC(N)=O)NC(=O)COCCOCCNC(=O)CN1CCN(CC(=O)O)CCN(CC(=O)O)CCN(CC(=O)O)CC1)C(C)C)C(=O)N[C@@H](CC(N)=O)C(=O)O (stereo partly drawn) [TM14] ({DOTA-AEEA}-NDV[ξIle]N-OH)")
"better than nM level"
>>> result_value("CC[C@H](C)C(NC(=O)[C@@H](NC(=O)[C@H](CC(=O)O)NC(=O)[C@H](CC(=O)O)NC(=O)CNC(=O)[C@H](CCCNC(=N)N)NC(=O)CN1CCN(CC(=O)O)CCN(CC(=O)O)CC1)C(C)C)C(=O)N[C@@H](CC(N)=O)C(=O)N[C@@H](Cc1ccccc1)C(=O)O (stereo partly drawn) [TM3] ({NOTA}-RGDDV[ξIle]NF-OH)")
"better than nM level"
>>> result_value("CC[C@H](C)[C@H](NC(=O)[C@@H](NC(=O)[C@H](CC(=O)O)NC(=O)[C@H](CC(N)=O)NC(=O)CCOCCOCCOCCOCCNC(=O)CN1CCN(CC(=O)O)CCN(CC(=O)O)CCN(CC(=O)O)CC1)C(C)C)C(=O)N[C@@H](CC(N)=O)C(=O)O [TM5] ({DOTA-PEG4}-NDVIN-OH)")
"better than nM level"

# input for lookup
-- ask # return recorded affinity constant (KD) to integrin α5β1, in words for input CC[C@H](C)C(NC(=O)[C@@H](NC(=O)[C@H](CC(=O)O)NC(=O)[C@H](CC(N)=O)NC(=O)[C@H](CC(=O)O)NC(=O)CNC(=O)[C@H](CCCNC(=N)N)NC(=O)COCCNC(=O)CN1CCN(CC(=O)O)CCN(CC(=O)O)CCN(CC(=O)O)CC1)C(C)C)C(=O)N[C@@H](CC(N)=O)C(=O)O (stereo partly drawn) [TM15] ({DOTA-AEA}-RGDNDV[ξIle]N-OH)
-- reply better than nM level

Ref: patent US20260014285A1
